Below, each entry is listed with its recorded growth.
Tested on: HS 578T breast
Assay Protocol: NCI-60 one-dose screen, 48 h (100 = growth as untreated, 0 = no growth, -100 = all killed)
Stated Conditions: 10 µM
Procedure: Growth inhibition of the HS 578T human tumor cell line is measured as a screen for anti-cancer activity. Cells are grown in 96 well plates and exposed to the test compound for 48 hours. Compounds are tested at a single concentration, which is 10^-5 M for most compounds. The reported endpoint is percent growth (GI% or GIPRCNT), where numbers from 0 - 100% represent growth inhibition, and numbers from -100% - 0 represent cell death. For example, a value of 40 represents 60% growth inhibition. […]
About 83,000 compounds went through this panel and 20% of them were active in at least one assay; those are over-represented in the sample as a whole.
Respond numerically; units are % and should not be typed.

Recorded results for 2 compounds are shown here.
[
  {
    "Compound": "CN(N)c1nc2sc3c(c2c(=O)[nH]1)CCCC3",
    "growth, %": 94.6
  },
  {
    "Compound": "CO/C=C/C(=O)c1cc2cnc3c(=N)cc(NC(=O)C(C)C)c([nH]1)c23",
    "growth, %": -6.02
  }
]

With those in mind, consider the next compound.
Challenge: Query growth for COc1ccc(CCCc2c3[n+](cc4c(OC)c(OC)ccc24)CCc2cc4c(cc2-3)OCO4)cc1
Response given: 97.2

* * *

Tested on: CCRF-CEM leukemia
Assay Protocol: NCI-60 one-dose screen, 48 h
Stated Conditions: 10 µM unless noted
This is part of a sample that, as a whole, favours compounds with a hit. Of some 83,000 tested, about 20% had one in any assay. Calls of active or inactive are those of the source. The calls were made as follows: active = growth percent below 10; inactive = the rest.
In this exercise, the only acceptable responses are Y = active, N = inactive

See these solved cases before continuing.
[
  {
    "Compound": "CCCCCCCC(=O)SCC/C=C/[C@@H]1CC(=O)NCc2nc(co2)C2=N[C@@](C)(CS2)C(=O)N[C@@H](C(C)C)C(=O)O1",
    "Cat": "N"
  },
  {
    "Compound": "Cn1ncc(Cl)c1-c1cc(C(=O)N[C@H](CN)Cc2ccc(F)c(F)c2)oc1Cl",
    "Cat": "Y"
  },
  {
    "Compound": "Nc1cc2c(cc1Br)-c1c(C(=O)O)cccc1C2O (stereo not drawn)",
    "Cat": "N"
  },
  {
    "Compound": "CC1(O)CCC(Nc2cc(-c3ccc(C(F)(F)F)cc3)c(C#N)c3nc4ccccc4n23)CC1 (stereo not drawn)",
    "Cat": "N"
  },
  {
    "Compound": "COc1ccc(-c2nocc2-c2cc(OC)c(OC)c(OC)c2)cc1",
    "Cat": "N"
  },
  {
    "Compound": "CC(C)CC(=O)Nc1n[nH]c2c1CN(C(=O)C1CCN(C)CC1)C2(C)C",
    "Cat": "Y"
  },
  {
    "Compound": "CCCCCCCCCNCCCCCCCCC",
    "Cat": "N"
  },
  {
    "Compound": "COc1cc2c(Oc3ccc4[nH]c(C)cc4c3F)ncnc2cc1OCCCN1CCCC1",
    "Cat": "N"
  }
]

Now for another entry.
Challenge: Record request — test call for COc1cc(N2CCC(N(C)C)CC2)ccc1Nc1ncc(Cl)c(Nc2ccccc2P(C)(C)=O)n1
Response given: N

* * *

Below, each entry is listed with its recorded growth.
System: UACC-62 melanoma
Assay Protocol: NCI-60 one-dose screen, 48 h (100 = growth as untreated, 0 = no growth, -100 = all killed)
Stated Conditions: 10 µM unless noted
About 83,000 compounds went through this panel and 20% of them were active in at least one assay; those are over-represented in the sample as a whole. Calls of active or inactive are those of the source. The calls were made as follows: active = growth percent below 10; inactive = the rest.

Recorded results for 5 compounds are shown here.
[
  {
    "Smiles Notation": "Cn1nccc1Nc1nccc(-c2ccn([C@H](CO)c3ccc(Cl)c(F)c3)c(=O)c2)n1",
    "growth": "9.88% (active)"
  },
  {
    "Smiles Notation": "CCS(=O)(=O)N1CCN(c2ccc(Nc3ncc(C(N)=O)c(NC4CC4)n3)cc2)CC1",
    "growth": "101% (inactive)"
  },
  {
    "Smiles Notation": "CCCCn1c(C)nc2ccc(Nc3nc(N4CCN(C)CC4)nc4nc[nH]c34)cc21",
    "growth": "91.9% (inactive)"
  },
  {
    "Smiles Notation": "C#Cc1cccc(Nc2ncnc3cc(OCCOC)c(OCCOC)cc23)c1",
    "growth": "50.9% (inactive)"
  },
  {
    "Smiles Notation": "CCc1nc2cc(/C=C/C(=O)NO)c(F)cc2c(=O)n1CCc1ccccc1",
    "growth": "-33.5% (active)"
  }
]

Challenge: Query growth for Nc1c(C(=O)c2ccccc2)sc2nc(-c3cccs3)ccc12
Response given: 11.8% (inactive)

Challenge: Query growth for COC(=O)[C@]12CC[C@@H](C)[C@H](C)[C@@H]1C1=CC[C@@H]3[C@@]4(C)C(C#N)=CC(C)=C4CC[C@@]3(C)[C@]1(C)CC2
Response given: 69.3% (inactive)

Challenge: Query growth for COc1cc2ncnc(Nc3ccc(F)c(Cl)c3)c2cc1NC(=O)/C=C/CN1CCCCC1
Response given: -84.3% (active)

Challenge: Query growth for COc1cc(N2CCC(N3CCN(C)CC3)CC2)ccc1Nc1ncnc(Nc2ccccc2S(=O)(=O)C(C)C)n1
Response given: 102% (inactive)

* * *

System: T-47D breast
Assay Protocol: NCI-60 one-dose screen, 48 h (100 = growth as untreated, 0 = no growth, -100 = all killed)
Stated Conditions: 10 µM unless noted
About 83,000 compounds went through this panel and 20% of them were active in at least one assay; those are over-represented in the sample as a whole.
Below, each entry is listed with its recorded growth.
Respond numerically; units are % and should not be typed.

Recorded results for 2 compounds are shown here.
[
  {
    "Compound": "O=C(Cn1ccc2ccccc21)Nc1ccc(-c2nc3ccccc3s2)cc1",
    "growth [%]": 90.6
  },
  {
    "Compound": "CN(N)c1nc2sc3c(c2c(=O)[nH]1)CCCC3",
    "growth [%]": 76.6
  }
]

Challenge: Query growth for Cc1ccc(N=C2CSc3nnc(-c4csc5c4CCCC5)n3N2)cc1
Response given: 48.2

Challenge: Query growth for C=CCCCC(=O)CCC(=O)OCC1O[C@@H](O[C@@H]2C(O)[C@@H](OC(C)=O)C(C)O[C@H]2O[C@H](CC=C)CCCCC)C(O)[C@@H](OC(=O)/C(C)=C/C)[C@@H]1OC(=O)/C=C/c1ccccc1 (stereo partly drawn)
Response given: -5.16

* * *

Tested on: NCI-H322M lung
Assay Protocol: NCI-60 one-dose screen, 48 h
Stated Conditions: 10 µM unless noted
The panel holds about 83,000 compounds, 20% with a hit somewhere; the sample as a whole holds those more often. The source made the active and inactive calls. Rule for the calls: active = growth percent below 10; inactive = the rest.
In this exercise, the only acceptable responses are active, inactive

[
  {
    "Smiles Notation": "Cc1ccc(C(=O)Nc2ccc(CN3CCN(C)CC3)c(C(F)(F)F)c2)cc1C#Cc1cnc2cccnn12",
    "Cat": "active"
  }
]

Challenge: Record request — test call for c1ccc2c(c1)CCN(NCCN1CCCC1)C2
Response given: inactive

Challenge: Record request — test call for CN1CCC(CNc2ccc3ncc(-c4cccc(OC(F)(F)F)c4)n3n2)CC1
Response given: active

Challenge: Record request — test call for COc1cc(-c2nc(C(=O)Nc3ccc(C)cc3)nn2-c2ccc(F)c(F)c2)cc(OC)c1OC
Response given: inactive

Challenge: Record request — test call for CCCCn1c(C)nc2cc(Nc3nc(N4CCCCC4)nc4nc[nH]c34)ccc21
Response given: inactive

Challenge: Record request — test call for CCc1nc2cc(/C=C/C(=O)NO)c(F)cc2c(=O)n1CCc1ccccc1
Response given: inactive

Challenge: Record request — test call for COC(=O)[C@]12CC[C@@H](C)[C@H](C)[C@@H]1C1=CC[C@@H]3[C@@]4(C)C(c5cnco5)=C[C@@](C)(CO)C4=CC[C@@]3(C)[C@]1(C)CC2
Response given: inactive

Challenge: Record request — test call for O=C(O)c1ccc2c(c1)nc(Nc1cccc(Cl)c1)c1ccncc12
Response given: active

Challenge: Record request — test call for O=C(CNc1nc(-c2ccc(Cl)cc2)cs1)Nc1ccc(-c2nc3ccccc3s2)cc1
Response given: inactive

* * *

System: M14 melanoma
Assay Protocol: NCI-60 one-dose screen, 48 h
Stated Conditions: 10 µM unless noted
The panel holds about 83,000 compounds, 20% with a hit somewhere; the sample as a whole holds those more often. Active and inactive are the calls of the source. Rule for the calls: active = growth percent below 10; inactive = the rest.
In this exercise, the only acceptable responses are active, inactive

See these solved cases before continuing.
[
  {
    "Compound": "COc1cc(-c2cc(-c3ccc(Nc4ccnc5cc(Cl)ccc45)cc3)nc(N3CCOCC3)n2)cc(OC)c1OC",
    "Cat": "active"
  },
  {
    "Compound": "O=C(Nc1ccc(N=Nc2ccccc2)cc1)c1cccc2ccccc12",
    "Cat": "inactive"
  },
  {
    "Compound": "COc1cc(C(=O)NNC(=O)c2ccc(NC(=O)CCl)cc2)cc(OC)c1OC",
    "Cat": "inactive"
  },
  {
    "Compound": "ClCc1ccc(-c2ccc(Cn3cnc4c(Cl)nc(Cl)nc43)cc2)cc1",
    "Cat": "inactive"
  },
  {
    "Compound": "Clc1nc(Cl)c2ncn(C/C=C\\Cn3cnc4c(Cl)nc(Cl)nc43)c2n1",
    "Cat": "active"
  }
]

Challenge: Record request — test call for CSc1nc2ncncc2[nH]1
Response given: inactive

Challenge: Record request — test call for S=C(NCc1ccc2c(c1)OCO2)N1CCN(c2ncnc3c2oc2ccccc23)CC1
Response given: inactive

Challenge: Record request — test call for Cc1ccc(F)c(NC(=O)Nc2ccc(-c3cccc4[nH]nc(N)c34)cc2)c1
Response given: inactive
